FYI, the data here is from patent US10173982B2.

Test system: Phakopsora pachyrhizi
assay.explanation: Fungicidal activity: Asian soybean rust (PHAKPA), disease control on soybean seedlings
Format: in vivo
run.conditions: 72 h, High volume at 25 ppm, 3 Day Curative, read-out: PHAKPA 3DC disease control rating
endpoint: pest or weed control at 25 ppm

Would you please look over these solved cases?
| molecule | target.or.system | pest or weed control at 25 ppm |
| --- | --- | --- |
| COc1ccnc(C(=O)N[C@@H](C)C(=O)O[C@@H](C)[C@@H](c2ccccc2)[S+]([O-])c2ccc(F)cc2)c1OC(C)=O (stereo partly shown) | Phakopsora pachyrhizi | ≤ 0% |
| COc1ccnc(C(=O)N[C@@H](C)C(=O)O[C@@H](C)[C@H](Sc2ccccc2)c2ccccc2)c1OCOC(=O)C(C)C | Phakopsora pachyrhizi | ≤ 80% |
| COc1ccnc(C(=O)N[C@@H](C)C(=O)O[C@@H](C)[C@H](Sc2ccccc2)c2ccccc2)c1OC(=O)C(C)C | Phakopsora pachyrhizi | ≤ 80% |

List reported pest or weed control at 25 ppm for each of these molecules:
1. COc1ccnc(C(=O)N[C@@H](C)C(=O)O[C@@H](C)[C@H](Sc2ccccc2)c2ccccc2)c1OC(C)=O
2. COc1ccnc(C(=O)N[C@@H](C)C(=O)O[C@@H](C)[C@H](Sc2ccccc2)c2ccc(F)cc2C)c1OC(C)=O
3. COc1ccnc(C(=O)N[C@@H](C)C(=O)O[C@@H](C)[C@H](SCC(C)C)c2ccccc2)c1OC(C)=O
4. COc1ccnc(C(=O)N[C@@H](C)C(=O)O[C@@H](C)[C@H](Sc2ccc(C)cc2)c2ccccc2)c1OC(C)=O
5. COc1ccnc(C(=O)N[C@@H](C)C(=O)O[C@@H](C)[C@H](Sc2ccccc2)c2ccccc2)c1OCOC(C)=O

Completion:
1: ≤ 80%; 2: ≤ 0%; 3: ≤ 80%; 4: ≤ 80%; 5: ≤ 80%

Dear reader, for each entry below, please note its pest or weed control at 25 ppm.
1. COc1ccnc(C(=O)N[C@@H](C)C(=O)O[C@@H](C)[C@H](Sc2ccc(C)cc2C)c2ccccc2)c1OC(C)=O
2. COc1ccnc(C(=O)N[C@@H](C)C(=O)O[C@@H](C)[C@@H](c2ccccc2)S(=O)(=O)c2ccc(F)cc2)c1OC(C)=O
3. COc1ccnc(C(=O)N[C@@H](C)C(=O)O[C@@H](C)[C@H](Sc2ccc(C(F)(F)F)cn2)c2ccccc2)c1OC(C)=O
4. COc1ccnc(C(=O)N[C@@H](C)C(=O)O[C@@H](C)[C@H](SC(C)C)c2ccccc2)c1OC(C)=O

Completion:
1: ≤ 0%; 2: ≤ 80%; 3: ≤ 80%; 4: ≤ 80%

Prompt: Please state recorded pest or weed control at 25 ppm (tested on Phakopsora pachyrhizi) of COc1ccnc(C(=S)N[C@@H](C)C(=O)O[C@@H](C)[C@H](Sc2ccccc2)c2ccc(F)cc2)c1OC(C)=O
Completion: ≤ 0%
